Measured IC50 values are reported for all entries that follow.
target: CAv1.2 (Homo sapiens, UniProt Q13936); assay: FLIPR data, CAv1.2 channel blocking (Table 6); assay type: cell-based; conditions: inactivated state, read-out: CAv1.2 IC50 Inact.
Sequence (Q13936 whole entry): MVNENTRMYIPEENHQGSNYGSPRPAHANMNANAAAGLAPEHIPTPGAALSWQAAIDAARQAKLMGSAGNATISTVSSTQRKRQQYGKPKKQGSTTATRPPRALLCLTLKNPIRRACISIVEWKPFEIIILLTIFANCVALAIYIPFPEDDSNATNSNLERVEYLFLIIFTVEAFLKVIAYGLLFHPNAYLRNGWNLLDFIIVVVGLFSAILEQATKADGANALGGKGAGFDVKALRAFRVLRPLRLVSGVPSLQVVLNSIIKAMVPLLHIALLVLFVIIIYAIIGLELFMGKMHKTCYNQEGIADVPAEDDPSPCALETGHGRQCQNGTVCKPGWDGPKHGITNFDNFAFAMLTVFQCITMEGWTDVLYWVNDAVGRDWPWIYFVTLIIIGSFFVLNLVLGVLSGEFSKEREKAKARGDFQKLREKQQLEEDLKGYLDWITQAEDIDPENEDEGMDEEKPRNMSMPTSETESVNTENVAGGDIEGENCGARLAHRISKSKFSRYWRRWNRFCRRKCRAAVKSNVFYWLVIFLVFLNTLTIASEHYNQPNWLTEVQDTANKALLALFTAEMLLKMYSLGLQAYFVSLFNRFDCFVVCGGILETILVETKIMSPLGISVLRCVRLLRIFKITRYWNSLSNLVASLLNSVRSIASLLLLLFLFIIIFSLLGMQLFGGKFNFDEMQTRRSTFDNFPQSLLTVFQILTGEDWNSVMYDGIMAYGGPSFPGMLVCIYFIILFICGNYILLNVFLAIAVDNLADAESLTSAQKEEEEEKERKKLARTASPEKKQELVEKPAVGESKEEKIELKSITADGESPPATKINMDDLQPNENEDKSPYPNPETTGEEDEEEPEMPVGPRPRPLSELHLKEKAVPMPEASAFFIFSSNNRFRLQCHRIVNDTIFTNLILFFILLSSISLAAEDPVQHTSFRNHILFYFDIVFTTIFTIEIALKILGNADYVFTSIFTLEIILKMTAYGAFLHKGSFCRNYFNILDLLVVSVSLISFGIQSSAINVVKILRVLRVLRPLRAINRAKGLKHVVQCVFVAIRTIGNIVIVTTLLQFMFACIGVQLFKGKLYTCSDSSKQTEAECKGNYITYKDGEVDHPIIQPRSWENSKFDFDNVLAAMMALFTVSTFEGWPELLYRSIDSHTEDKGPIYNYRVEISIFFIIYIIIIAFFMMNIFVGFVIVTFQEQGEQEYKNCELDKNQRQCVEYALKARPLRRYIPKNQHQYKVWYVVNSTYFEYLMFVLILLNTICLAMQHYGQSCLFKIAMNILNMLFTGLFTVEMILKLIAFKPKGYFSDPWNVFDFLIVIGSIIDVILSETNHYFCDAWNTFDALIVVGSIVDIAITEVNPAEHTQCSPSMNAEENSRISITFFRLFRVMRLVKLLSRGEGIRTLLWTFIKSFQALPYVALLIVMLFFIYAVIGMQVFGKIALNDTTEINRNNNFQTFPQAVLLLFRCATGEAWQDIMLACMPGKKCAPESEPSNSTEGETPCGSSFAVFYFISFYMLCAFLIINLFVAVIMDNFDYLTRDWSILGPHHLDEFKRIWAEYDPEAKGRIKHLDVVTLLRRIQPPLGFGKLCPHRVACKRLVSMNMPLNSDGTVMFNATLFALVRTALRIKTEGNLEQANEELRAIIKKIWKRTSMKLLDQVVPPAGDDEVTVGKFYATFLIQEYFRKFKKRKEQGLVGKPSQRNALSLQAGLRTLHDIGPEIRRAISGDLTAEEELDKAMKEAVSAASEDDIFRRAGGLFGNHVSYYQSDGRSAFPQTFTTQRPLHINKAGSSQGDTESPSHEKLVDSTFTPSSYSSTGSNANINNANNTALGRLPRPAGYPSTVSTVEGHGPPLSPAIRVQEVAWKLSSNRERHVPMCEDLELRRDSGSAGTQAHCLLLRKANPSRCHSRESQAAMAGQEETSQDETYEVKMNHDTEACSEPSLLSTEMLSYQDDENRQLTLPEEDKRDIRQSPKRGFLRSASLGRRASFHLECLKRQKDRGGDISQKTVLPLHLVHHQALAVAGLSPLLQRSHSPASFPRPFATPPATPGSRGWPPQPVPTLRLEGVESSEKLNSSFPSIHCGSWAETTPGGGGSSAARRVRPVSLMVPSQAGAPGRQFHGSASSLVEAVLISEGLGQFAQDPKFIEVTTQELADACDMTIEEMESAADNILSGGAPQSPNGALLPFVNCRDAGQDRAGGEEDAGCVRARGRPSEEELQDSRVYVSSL
Sequence (P54289 25-1103 partner): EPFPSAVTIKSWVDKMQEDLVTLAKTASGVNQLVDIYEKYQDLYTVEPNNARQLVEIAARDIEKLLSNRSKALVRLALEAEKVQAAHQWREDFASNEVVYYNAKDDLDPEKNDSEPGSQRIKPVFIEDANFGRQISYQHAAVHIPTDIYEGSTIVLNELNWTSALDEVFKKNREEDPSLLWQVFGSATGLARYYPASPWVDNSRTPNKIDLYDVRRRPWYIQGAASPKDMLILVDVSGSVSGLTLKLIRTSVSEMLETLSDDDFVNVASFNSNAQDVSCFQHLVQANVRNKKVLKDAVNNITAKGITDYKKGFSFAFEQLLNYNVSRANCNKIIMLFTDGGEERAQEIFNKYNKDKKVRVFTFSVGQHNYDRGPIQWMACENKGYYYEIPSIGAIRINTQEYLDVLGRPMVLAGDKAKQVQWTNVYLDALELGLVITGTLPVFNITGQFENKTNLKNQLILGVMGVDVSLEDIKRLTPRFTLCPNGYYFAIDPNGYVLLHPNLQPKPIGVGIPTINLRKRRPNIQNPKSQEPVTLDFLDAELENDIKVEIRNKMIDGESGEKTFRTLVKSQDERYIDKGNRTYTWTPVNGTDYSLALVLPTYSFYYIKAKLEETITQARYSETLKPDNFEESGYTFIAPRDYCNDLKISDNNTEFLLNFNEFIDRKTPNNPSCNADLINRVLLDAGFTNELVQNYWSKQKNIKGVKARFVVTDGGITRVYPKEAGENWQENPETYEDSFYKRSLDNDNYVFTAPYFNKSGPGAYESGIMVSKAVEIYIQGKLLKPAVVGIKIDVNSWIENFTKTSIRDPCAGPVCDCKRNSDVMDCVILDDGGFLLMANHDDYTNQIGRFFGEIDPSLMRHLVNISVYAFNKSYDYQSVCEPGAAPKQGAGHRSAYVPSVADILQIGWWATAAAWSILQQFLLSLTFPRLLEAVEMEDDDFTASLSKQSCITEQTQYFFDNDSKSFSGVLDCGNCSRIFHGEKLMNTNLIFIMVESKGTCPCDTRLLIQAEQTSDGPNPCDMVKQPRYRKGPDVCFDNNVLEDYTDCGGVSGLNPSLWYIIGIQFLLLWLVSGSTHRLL
Sequence (Q08289 whole entry partner): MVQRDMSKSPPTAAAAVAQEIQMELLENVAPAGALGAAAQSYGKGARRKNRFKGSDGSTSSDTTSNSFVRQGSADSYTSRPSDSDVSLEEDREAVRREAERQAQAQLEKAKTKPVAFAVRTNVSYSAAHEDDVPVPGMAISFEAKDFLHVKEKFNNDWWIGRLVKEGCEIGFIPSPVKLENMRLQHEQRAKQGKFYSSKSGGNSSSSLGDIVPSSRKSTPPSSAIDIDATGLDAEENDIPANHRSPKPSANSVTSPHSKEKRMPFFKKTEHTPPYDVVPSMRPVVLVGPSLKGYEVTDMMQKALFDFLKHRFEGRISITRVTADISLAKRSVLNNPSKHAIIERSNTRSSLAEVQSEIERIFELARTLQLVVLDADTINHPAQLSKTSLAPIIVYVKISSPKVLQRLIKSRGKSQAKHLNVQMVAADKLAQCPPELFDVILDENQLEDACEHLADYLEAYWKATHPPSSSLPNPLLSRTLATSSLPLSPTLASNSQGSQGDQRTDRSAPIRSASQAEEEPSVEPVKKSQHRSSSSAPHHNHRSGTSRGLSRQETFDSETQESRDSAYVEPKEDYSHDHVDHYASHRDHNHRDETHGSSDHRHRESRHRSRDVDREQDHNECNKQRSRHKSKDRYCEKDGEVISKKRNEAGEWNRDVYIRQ

CC(C)(C[C@H]1C[C@H](NC(=O)c2ccc(Cl)cc2S(C)(=O)=O)C1)S(=O)(=O)c1cccc(C(F)(F)F)c1	≥ 10 µM
CC(C)([C@H]1C[C@@H](NC(=O)c2ccc(Cl)cc2S(C)(=O)=O)C1)S(=O)(=O)c1cccc(C(F)(F)F)c1	≥ 10 µM

Consider the record given below.
For reference, reported IC50 for `CC(C)([C@H]1C[C@@H](NC(=O)c2ncc(C(F)(F)F)cc2S(C)(=O)=O)C1)S(=O)(=O)c1cc(F)cc(C(F)(F)F)c1` stands at ≥ 10 µM

Hello, the source for this data is patent US20120245137A1, in case you need it.
